Tested on: Escherichia coli DH5[alpha]
CONDITION_SUMMARY: dose 32.0 mg/L
RECORDED_ENDPOINT: MIC (µg/mL)

Field: example entries. Status: answers known.
C[C@H](CS)C(=O)N1CCC[C@@H]1C(=O)O
4
C[C@H](CS)C(=O)N1CCCC[C@@H]1C(=O)O
2

[A] C[C@H](CS)C(=O)N1CCC(C(=O)O)CC1
[B] C[C@H](CS)C(=O)N1CCc2ccccc2[C@@H]1C(=O)O
Prompt line: Which one would you say has the larger MIC value: A , or B ? Pick one and reply with its label.
Response line: B
(B: 4 µg/mL, A: 2 µg/mL)
